Values were extracted from the Human Domainome abundance scans (Beltran et al. 2025).

As shown below, each of these variants has a reported abundance fitness value.
B1: Max-interacting protein 1, residues 70 to 120; numbered along this chain, P50539 (parent)
chain: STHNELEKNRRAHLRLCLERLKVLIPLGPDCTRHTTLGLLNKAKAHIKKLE

# Variants of: B1
# MEASUREMENT_PROTOCOL: abundance fitness (aPCA) (normalised: wild type 0, dead -1); higher = more abundant; growth selection in yeast, the domain comes from the species named
# TEST_SETTINGS: Homo sapiens
Response field accepts a number only; no unit should be typed.

Here are 6 variants together with their reported answers.
STHNELEKNRRAHLRLCLERLKVLIPLGPDCTRHTTLGLLNKAKAHIHKLE [K48H]; -0.74
STHNELEKNRRAHLRLCLFRLKVLIPLGPDCTRHTTLGLLNKAKAHIKKLE [E19F]; -0.623
STHNELEKNRRAHLRLCLERLKVLIPLGPDCTRHTTLGLLNKAKAHICKLE [K48C]; -0.311
STHNELEKNRRAHLRLCLERLKVIIPLGPDCTRHTTLGLLNKAKAHIKKLE [L24I]; 0.137
STHNELEKNRRAHLRLCLERLKVLIPHGPDCTRHTTLGLLNKAKAHIKKLE [L27H]; -0.146
STHNELEKNRRAHLRLCLEHLKVLIPLGPDCTRHTTLGLLNKAKAHIKKLE [R20H]; -0.726

Problem: Need abundance fitness of STHNELEKNRRAHLRLHLERLKVLIPLGPDCTRHTTLGLLNKAKAHIKKLE [C17H] , thanks.
Result: -0.683

Problem: Need abundance fitness of STHNELEKNRRAHLRLCLERLKVLIPLGPDCTRHTTLGLENKAKAHIKKLE [L40E] , thanks.
Result: -0.857

Problem: Need abundance fitness of STHNELETNRRAHLRLCLERLKVLIPLGPDCTRHTTLGLLNKAKAHIKKLE [K8T] , thanks.
Result: -0.377

Problem: Need abundance fitness of STHNELDKNRRAHLRLCLERLKVLIPLGPDCTRHTTLGLLNKAKAHIKKLE [E7D] , thanks.
Result: -0.184

Problem: Need abundance fitness of STHNEQEKNRRAHLRLCLERLKVLIPLGPDCTRHTTLGLLNKAKAHIKKLE [L6Q] , thanks.
Result: 0.18

Problem: Need abundance fitness of STHNELEKNRRAHLRLCLNRLKVLIPLGPDCTRHTTLGLLNKAKAHIKKLE [E19N] , thanks.
Result: 0.202
